# growth inhibition annotations
measurement notes: NCI Yeast Anticancer Drug Screen. Data for the rad52 strain (AID 147);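 further: 0% = growth of vehicle-treated control cultures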
protocol conditions: S. cerevisiae rad52 mutant growth inhibition; at 33.0 µM; stronger effect = higher value
This is part of a sample that, as a whole, favours compounds with a hit. Of some 79,000 tested, about 15% had one in any assay. Activity calls are given as the source filed them. No stated cut-off is given here; in the data, active means growth inhibition above about 70%; inactive means the rest.
endpoint: growth inhibition

O=C(C(Cl)=C(N1CCCCC1)N1CCCCC1)C(Cl)Cl	3% (inactive)
O=C(NOC(=O)c1ccc([N+](=O)[O-])cc1)c1ccc(Cl)cc1	89% (active)
CCCCCCC=C(C(=O)OCC)C(=O)OCC	2% (inactive)
O=[N+]([O-])c1ccc2[nH]c3c(-c4ccccc4)nccc3c2c1	97% (active)
COc1ccc2nc3cccc([N+](=O)[O-])c3c(NCCCCCC(=O)O)c2c1	98% (active)
Cc1ccc(C)c(C(=N)c2ccccc2Cc2ccccc2)c1	94% (active)

* * *

measurement notes: NCI Yeast Anticancer Drug Screen. Data for the rad52 strain (AID 147);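 further: 0% = growth of vehicle-treated control cultures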
protocol conditions: S. cerevisiae rad52 mutant growth inhibition; at 11.0 µM; stronger effect = higher value
This is part of a sample that, as a whole, favours compounds with a hit. Of some 79,000 tested, about 15% had one in any assay.
endpoint: growth inhibition (%)

C[N+](C)([O-])CCCNc1c2ccccc2nc2cccc([N+](=O)[O-])c12	94
C/C(=N\OCC(O)CNCCSCc1ccccc1)c1ccccc1Cl (stereo not drawn)	26
O=C1CCC(Cc2ccccc2)CN1 (stereo not drawn)	-2
CC(C)C(c1ccccc1)c1ccccc1	9
O=c1[nH]c2c([N+](=O)[O-])cccc2c2ccccc12	6
CCCNCC(=O)O[C@]1(CC)C(=O)OCc2c1cc1n(c2=O)Cc2cc3ccccc3nc2-1	94
CCS(=O)(=O)Nc1ccc(Nc2c3ccccc3nc3ccccc23)c(OC)c1	88
NC(CCCCCCCCCCCCC(N)C(=O)c1ccccc1)C(=O)c1ccccc1 (stereo not drawn)	88
CCCCCCCCCCCCCCCCCCNC(=S)/N=C/c1c(O)c2ccccc2[nH]c1=O	16
CSC(=S)N/N=C/c1ccccc1	53
Cc1c(Cl)c(C)c(Cl)c(O)c1Cl	28
CCCCCCCCCCCCCCCCCCN(C)C(COC)COP(=O)([O-])OCC[N+](C)(C)C (stereo not drawn)	95
CN(C)CCNCCCNc1c2ccccc2nc2cccc([N+](=O)[O-])c12	80
OC1(c2ccccc2)C2CC=CC2C1(c1ccccc1)c1ccccc1 (stereo not drawn)	4
CCC(OC(C)=O)C1CC(C(C)C)CCC1C (stereo not drawn)	4
c1c[nH]c(CN2CCN(Cc3ncc[nH]3)CC2)n1	96
O=C1c2ccccc2-c2cc3ccccc3c(=O)n21	91
COC(=O)C(=O)c1c(-c2ccc(Cl)c(Cl)c2)[nH]c2[nH]n(-c3ccccc3)c(=O)c2c1=O	37
O=C1C(/C=C/c2ccc(Cl)cc2)=NNC2N1N=C1NC(=O)C3(NN12)c1ccccc1-c1ccccc13 (stereo not drawn)	-1
Nc1ccc2cc(Br)ccc2c1Br	1
CN(CCOc1ccc(Cl)cc1)CCOc1ccc(Cl)cc1	50
N#[N+]c1c([O-])c2ccccc2c2ccccc12	82
CCCCS(=O)(=O)Nc1ccc(Nc2c3ccccc3nc3ccccc23)c(OC)c1	90

* * *

measurement notes: NCI Yeast Anticancer Drug Screen. Data for the cln2 rad14 strain (AID 165);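 further: 0% = growth equal to vehicle treated cultures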
protocol conditions: S. cerevisiae cln2 rad14 strain, at 50.0 µM
The panel holds about 79,000 compounds, 15% with a hit somewhere; the sample as a whole holds those more often. Active and inactive are the calls of the source. Cut-off read from the data, not from the text of the source: active = growth inhibition above about 70%; inactive = the rest.
Labels: active, inactive

COC1=CCC23C(=O)C=CC(=O)C2(C1)C(=O)c1ccccc1C3=O (centres undefined)	inactive
Oc1ccc(N=Nc2ccc(Cl)cc2)cc1	active
O=C1c2ccccc2C(=O)c2sc(Nc3ccccc3Cl)nc21	active
O=C1CCC(Cc2ccccc2)CN1 (centres undefined)	inactive
Nc1cccc(-c2cc[cH-]c2)c1.[Fe+2].c1cc[cH-]c1	inactive
O=C1NC(c2cccc(OCc3ccccc3)c2)Nc2ccccc21 (centres undefined)	inactive
Nc1cc2c(cc1N)-c1ccccc1C2=O	inactive
COc1ccc2nc3cccc([N+](=O)[O-])c3c(NCCNCCN(C)C)c2c1	active
CCCCCCCCSC1=C(Cl)C(=O)C(OC)=C(OC)C1=O	inactive
Cc1ccc(S(=O)(=O)Nc2cccc3cccnc23)cc1	inactive
Clc1nc(Cl)nc(Nc2cccc3ccccc23)n1	active
S=C1N(c2ccc(Cl)cc2)C2=C(N=Nc3ccccc3)C(=Nc3ccccc3S2)N1c1ccccn1	active
COc1ccccc1NC(=O)c1ccc(Cl)cc1	inactive
CCc1c(Cl)c(C)c(Cl)c(O)c1Cl	active
CC1(C)CC(=O)C(C(=O)Nc2cccs2)=C(O)C1	active
c1ccc(-c2cc(C3CO3)c3ccccc3n2)cc1 (centres undefined)	inactive
N#CCC(=O)N/N=C(\c1ccccc1)C(c1ccccc1)C1(O)C(=O)Nc2c(Cl)ccc(Cl)c21 (centres undefined)	inactive
CCCCCCCCCCCCCCCCCCN(C)C(COC)COP(=O)([O-])OCC[N+](C)(C)C (centres undefined)	inactive
CC/C(=C(\c1ccccc1)c1ccc(OCC[N+](C)(C)C)cc1)c1ccccc1	active
O=C(O)CNC(c1ccccc1)(c1ccccc1)c1ccccc1	active
CN(C)CC(CN(C)C)C(=O)/C=C/c1ccc(Cl)cc1Cl	inactive
COC(=N)c1ccc(O)c(C)c1	inactive
C1=CCN([B-](c2ccccc2)[C+]2CCCCC2)C=C1	inactive
Cc1cc(C)c(S(=O)(=O)c2ccc(Cl)cc2)c(C)c1	inactive
